Recorded IC50 by entry
Molecular target: CYP2C9 (Homo sapiens, UniProt P11712)
Construct: co-incubated with human liver microsomes; from tissue; host or cells: human liver microsomes
Sequence (P11712 whole entry): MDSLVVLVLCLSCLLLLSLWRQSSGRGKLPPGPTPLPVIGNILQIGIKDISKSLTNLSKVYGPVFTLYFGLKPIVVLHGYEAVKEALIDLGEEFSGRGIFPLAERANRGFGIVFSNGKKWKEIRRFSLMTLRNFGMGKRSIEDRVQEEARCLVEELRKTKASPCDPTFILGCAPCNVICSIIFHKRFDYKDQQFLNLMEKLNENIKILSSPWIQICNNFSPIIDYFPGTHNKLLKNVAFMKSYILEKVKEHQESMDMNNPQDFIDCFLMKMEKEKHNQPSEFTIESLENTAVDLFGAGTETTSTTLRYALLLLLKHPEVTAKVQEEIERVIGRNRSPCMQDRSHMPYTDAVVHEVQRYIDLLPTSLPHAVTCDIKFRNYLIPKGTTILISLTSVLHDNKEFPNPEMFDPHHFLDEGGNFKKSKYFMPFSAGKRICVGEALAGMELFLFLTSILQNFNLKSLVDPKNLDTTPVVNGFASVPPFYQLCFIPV
Test: CYP inhibition assay in human liver microsomes
Assay type: in vitro ADME
Settings: human liver microsomes, NADPH; read-out: CYPs 2C9 (IC50)
measured_attribute: IC50

>>> observed_value("CC(C)(c1ccc(-c2ccc(OCc3ccnc(N4CC5(CCS5(=O)=O)C4)n3)cc2)cc1)c1cc(Cl)c(OCCCl)c(C#N)c1")
"> 10 µM"
>>> observed_value("CC(C)(c1ccc(-c2ccc(OCc3ccnc(N=S4(=O)CCCC4)n3)cc2)cc1)c1cnc2c(cnn2CCCl)c1")
"6.7 µM"
>>> observed_value("CC(C)(c1ccc(-c2ccc(OCc3ccnc(N4CC(S(C)(=O)=O)C4)n3)cc2)cc1)c1cc(Cl)c(OCCCl)c(C#N)c1")
"> 10 µM"

---

Assay: Mouse pharmacokinetic test
Assay type: in vivo, ICR mice
Conditions: plasma, po, 30 mg/kg, PO-30mpk
measured_attribute: half-life (h)

>>> observed_value("CC(C)(c1ccc(-c2ccc(OCc3ccnc(N=S4(=O)CCCC4)n3)cc2)cc1)c1cc(Cl)c(OCCCl)c(C#N)c1")
5
>>> observed_value("CC(C)(c1ccc(-c2ccc(OCc3ccnc(N4CC(S(N)(=O)=O)C4)n3)cn2)cc1)c1cc(Cl)c(OCCCl)c(C#N)c1")
5.17
>>> observed_value("CC(C)(c1ccc(-c2ccc(OCc3ccnc(N=S(C)(C)=O)n3)cc2)cc1)c1cc(Cl)c(OCCCl)c(C#N)c1")
9.35
>>> observed_value("CC(C)(c1ccc(-c2ccc(OCc3ccnc(N4CC(NS(C)(=O)=O)C4)n3)cc2)cc1)c1cc(Cl)c(OCCCl)c(C#N)c1")
22.7
>>> observed_value("CC(C)(c1ccc(-c2cnc(OCc3ccnc(N4CC([S@](C)(=N)=O)C4)n3)cn2)cc1)c1cc(Cl)c(OCCCl)c(C#N)c1 (single isomer, unassigned) [Compound 323A]")
5.94
>>> observed_value("CC(C)(c1ccc(-c2ccc(C#Cc3cnc(P(C)(C)=O)nc3)cc2)cc1)c1cc(Cl)c(OCCCl)c(C#N)c1")
27.1
>>> observed_value("CC(C)(c1ccc(-c2ccc(OCc3ccc(-c4cnc(P(C)(C)=O)nc4)nc3)cc2)cc1)c1cc(Cl)c(OCCCl)c(C#N)c1")
9
>>> observed_value("CC(C)(c1ccc(-c2ccc(OCc3ccnc(N4CC5(CCS(=N)(=O)CC5)C4)n3)cc2)cc1)c1cc(Cl)c(OCCCl)c(C#N)c1")
10.7
>>> observed_value("CC(C)(c1ccc(-c2ccc3oc(-c4ccnc(P(C)(C)=O)n4)c(N)c3c2)cc1)c1cc(Cl)c(OCCCl)c(C#N)c1")
8.57
>>> observed_value("CC(C)(c1ccc(-c2ccc(OCc3ccnc(N4CC(S(C)(=O)=O)C4)n3)cc2)cc1)c1cc(Cl)c(OCCCl)c(C#N)c1")
28.1
>>> observed_value("CC(C)(c1ccc(-c2ccc(OCc3ccnc(C4CN(S(C)(=O)=O)C4)n3)cc2)cc1)c1cc(Cl)c(OCCCl)c(C#N)c1")
15.3

---

Biological target: CYP1A2 (Homo sapiens)
Construct: co-incubated with human liver microsomes; from tissue; host or cells: human liver microsomes
Sequence (P05177 whole entry): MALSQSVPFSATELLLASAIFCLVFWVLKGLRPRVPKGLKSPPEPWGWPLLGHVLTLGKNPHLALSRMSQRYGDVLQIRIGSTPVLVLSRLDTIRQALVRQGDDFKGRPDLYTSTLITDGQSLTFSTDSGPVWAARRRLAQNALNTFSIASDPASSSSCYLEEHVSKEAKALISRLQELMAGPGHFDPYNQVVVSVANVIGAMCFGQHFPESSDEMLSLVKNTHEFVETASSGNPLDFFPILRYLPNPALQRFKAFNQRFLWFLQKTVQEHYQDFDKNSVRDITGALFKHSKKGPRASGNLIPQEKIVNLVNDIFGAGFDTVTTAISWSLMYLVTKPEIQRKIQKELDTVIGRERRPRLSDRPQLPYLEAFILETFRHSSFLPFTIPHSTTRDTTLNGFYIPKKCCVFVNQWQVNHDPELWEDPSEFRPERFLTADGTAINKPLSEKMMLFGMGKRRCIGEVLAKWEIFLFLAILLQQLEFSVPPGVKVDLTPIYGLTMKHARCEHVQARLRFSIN
Assay: CYP inhibition assay in human liver microsomes
Format: in vitro ADME
measured_attribute: IC50

>>> observed_value("CC(C)(c1ccc(-c2ccc3oc(-c4ccnc(P(C)(C)=O)n4)c(N)c3c2)cc1)c1cc(Cl)c(OCCCl)c(C#N)c1 [Compound 56]")
"> 10 µM"

---

Biological target: CYP2C8 (Homo sapiens)
Construct: co-incubated with human liver microsomes; from tissue; host or cells: human liver microsomes
Sequence (P10632 whole entry): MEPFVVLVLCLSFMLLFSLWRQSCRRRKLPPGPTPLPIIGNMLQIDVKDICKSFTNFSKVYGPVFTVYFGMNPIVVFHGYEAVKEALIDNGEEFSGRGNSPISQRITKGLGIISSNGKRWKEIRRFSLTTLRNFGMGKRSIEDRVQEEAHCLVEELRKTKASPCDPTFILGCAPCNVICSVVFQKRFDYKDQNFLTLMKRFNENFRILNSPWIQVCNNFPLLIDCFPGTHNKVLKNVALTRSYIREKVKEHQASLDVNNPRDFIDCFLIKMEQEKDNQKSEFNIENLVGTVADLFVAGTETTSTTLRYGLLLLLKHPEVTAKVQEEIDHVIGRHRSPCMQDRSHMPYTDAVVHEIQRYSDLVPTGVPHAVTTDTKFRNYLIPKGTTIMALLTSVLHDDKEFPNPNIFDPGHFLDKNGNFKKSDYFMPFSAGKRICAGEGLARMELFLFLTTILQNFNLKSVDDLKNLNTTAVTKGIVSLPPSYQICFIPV
Assay: CYP inhibition assay in human liver microsomes
Assay type: in vitro ADME
Conditions: human liver microsomes, NADPH; read-out: CYPs 2C8 (IC50)
pIC50: −log10 of the molar value.
measured_attribute: pIC50

>>> observed_value("CC(C)(c1ccc(-c2ccc(OC3CCN(c4ccnc(P(C)(C)=O)n4)CC3)cc2)cc1)c1cc(Cl)c(OCCCl)c(C#N)c1")
5.77
>>> observed_value("CC(C)(c1ccc(-c2ccc(OCc3ccnc(N4CC(S(C)(=O)=O)C4)n3)nc2)cc1)c1cc(Cl)c(OCCCl)c(C#N)c1")
"< 5.00"
>>> observed_value("CC(C)(c1ccc(-c2ncc(OCc3cnc(-c4cnc(P(C)(C)=O)nc4)cn3)cn2)cc1)c1cc(Cl)c(OCCCl)c(C#N)c1")
5.89
>>> observed_value("CC(C)(c1ccc(-c2cnc(OCc3ccnc(N4CC5(CCS5(=N)=O)C4)n3)cn2)cc1)c1cc(Cl)c(OCCCl)c(C#N)c1 (single isomer, unassigned) [Compound 375A]")
"< 5.00"
>>> observed_value("CC(C)(c1ccc(-c2cnc(OCc3ccnc(N4CC5(C4)CS(=N)(=O)C5)n3)cn2)cc1)c1cc(Cl)c(OCCCl)c(C#N)c1")
"< 5.00"
>>> observed_value("CC(C)(c1ccc(-c2cnc(OCc3ccnc(N4CC(S(=N)(=O)C5CC5)C4)n3)cn2)cc1)c1cc(Cl)c(OCCCl)c(C#N)c1 (single isomer, unassigned) [Compound 350A]")
"< 5.00"
>>> observed_value("CC(C)(c1ccc(-c2cnc(OCc3ccnc(N4CC(S(C)(=O)=O)C4)n3)cn2)cc1)c1cc(Cl)c(OCCCl)c(C#N)c1")
"< 5.00"

---

Assay: Mouse pharmacokinetic test
Format: in vivo, ICR mice
Settings: plasma, iv, 0.5 mg/kg, IV-0.5mpk
measured_attribute: half-life (h)

>>> observed_value("CC(C)(c1ccc(-c2cnc(OCc3ccnc(N4CC(S(C)(=O)=O)C4)n3)cn2)cc1)c1cc(Cl)c(OCCCl)c(C#N)c1 [Compound 262]")
10.8
>>> observed_value("CC(C)(c1ccc(-c2ccc(OCc3ccnc(P(C)(C)=O)n3)nc2)cc1)c1cc(Cl)c(OCCCl)c(C#N)c1 [Compound 17]")
5.6
>>> observed_value("CC(C)(c1ccc(-c2ccc(OCc3ccnc(N4CC(S(C)(=O)=O)C4)n3)nc2)cc1)c1cc(Cl)c(OCCCl)c(C#N)c1 [Compound 207]")
16.1

---

Assay: Mouse pharmacokinetic test
Format: in vivo, ICR mice
Settings: plasma, po, 30 mg/kg, PO-30mpk, read-out: Tmax
Description: Formulation preparation: The dosing solutions were prepared on the day of administration. Six healthy male naive ICR mice weighing 25-30 g were selected and divided into two groups (intravenous and oral groups), with three mice in each group, and administered a single dose. […] Feeding was resumed 4 h after administration. Timing was initiated following intravenous and oral administration. […]
Hi! Could you tag entries with Tmax below 5 h as Satisfied, and those at or above as Not satisfied? Much appreciated.

>>> group_label("CC(C)(c1ccc(-c2ccc(OCc3ccnc(N=S4(=O)CCOCC4)n3)cn2)cc1)c1cc(Cl)c(OCCCl)c(C#N)c1")
"Satisfied"
>>> group_label("CC(C)(c1ccc(-c2ccc(C#Cc3cnc(P(C)(C)=O)nc3)cc2)cc1)c1cc(Cl)c(OCCCl)c(C#N)c1")
"Satisfied"
>>> group_label("CC(C)(c1ccc(-c2ccc(/C=C/c3cnc(P(C)(C)=O)nc3)cc2)cc1)c1cc(Cl)c(OCCCl)c(C#N)c1")
"Not satisfied"
>>> group_label("CC(C)(c1ccc(-c2ccc(OCc3ccnc(N4CC5(CCS(=O)(=O)CC5)C4)n3)cc2)cc1)c1cc(Cl)c(OCCCl)c(C#N)c1")
"Not satisfied"
>>> group_label("CC(C)(c1ccc(-c2ccc(OCc3ccnc(N=S4(=O)CCCC4)n3)cc2)cc1)c1cnc2c(cnn2CCCl)c1")
"Satisfied"

---

Assay: Mouse pharmacokinetic test
Format: in vivo, ICR mice
Settings: plasma, 30 mg/kg, PO-30mpk vs IV-0.5mpk
Measured bioavailability, listed per entry for reference.
measured_attribute: bioavailability (%)

>>> observed_value("CC(C)(c1ccc(-c2ccc(OCc3ccnc(N4CC(S(C)(=O)=O)C4)n3)cc2)cc1)c1cc(Cl)c(OCCCl)c(C#N)c1 [Compound 53]")
68.4
>>> observed_value("CC(C)(c1ccc(-c2ccc(C#Cc3cnc(P(C)(C)=O)nc3)cc2)cc1)c1cc(Cl)c(OCCCl)c(C#N)c1 [Compound 109]")
93.6
>>> observed_value("CC(C)(c1ccc(-c2ccc(OCc3ccnc(N4CC(S(C)(=O)=O)C4)n3)cn2)cc1)c1cc(Cl)c(OCCCl)c(C#N)c1 [Compound 85]")
58.3

---

Assay: Mouse pharmacokinetic test
Type: in vivo, ICR mice
Settings: plasma, 30 mg/kg, PO-30mpk vs IV-0.5mpk
Label rule met when bioavailability is at or above 70%; anything below gets rule not met.

>>> group_label("CC(C)(c1ccc(-c2ccc(OCc3ccnc(P(C)(C)=O)n3)nc2)cc1)c1cc(Cl)c(OCCCl)c(C#N)c1 [Compound 17]")
"rule met"
>>> group_label("CC(C)(c1ccc(-c2ccc(OCc3ccnc(P(C)(C)=O)n3)cc2)cc1)c1cc(Cl)c(OCCCl)c(C#N)c1 [Compound 2]")
"rule met"
>>> group_label("CC(C)(c1ccc(-c2ccc3oc(-c4ccnc(P(C)(C)=O)n4)c(N)c3c2)cc1)c1cc(Cl)c(OCCCl)c(C#N)c1 [Compound 56]")
"rule not met"
>>> group_label("CC(C)(c1ccc(-c2ccc(OCc3ccnc(N4CC(S(C)(=O)=O)C4)n3)nc2)cc1)c1cc(Cl)c(OCCCl)c(C#N)c1 [Compound 207]")
"rule met"
>>> group_label("CC(C)(c1ccc(-c2ccc(OCc3ccc(-c4cnc(P(C)(C)=O)nc4)cc3)cc2)cc1)c1cc(Cl)c(OCCCl)c(C#N)c1 [Compound 136]")
"rule not met"

Taken from patent EP4778922A1.
